assay: Acute toxicity in mice (oral); settings: mouse, in vivo, oral administration
Consider the following compounds and their measured LD50 readings.
metric_name: LD50

>>> value_measured("CCOC(=O)c1cnc2ccc(Cl)cc2c1NCC(=O)N(CC)CC")
"1800 mg/kg"
>>> value_measured("CCN(CC)C(=O)CNc1c(C(=O)O)cnc2ccc(Cl)cc12")
"2200 mg/kg"
>>> value_measured("CCOC(=O)c1cnc2ccc(OC)cc2c1NCC(=O)N(CC)CC")
"1650 mg/kg"

====

target: benzodiazepine receptors; experiment: Affinity for benzodiazepine receptors: inhibition of specific binding of [3H]flunitrazepam (WASTEK et al., modified); conditions: 50% inhibition of specific binding of [3H]flunitrazepam, rat brain membranes
# Condition met = IC50 below 0.05 µM (exclusive); Condition not met = IC50 at/above 0.05 µM

>>> category("CCOC(=O)c1cnc2ccc(Cl)cc2c1NCC(=O)N1CCCC1")
"Condition not met"
>>> category("CCOC(=O)c1cnc2ccccc2c1NCC(=O)N(CC)CC")
"Condition not met"
>>> category("CCCN(CCC)C(=O)CNc1c(C(=O)O)cnc2ccc(Br)cc12 [Derivative 47, monohydrate]")
"Condition met"
>>> category("CCN(CC)C(=O)CNc1c(C(=O)Nc2ccccc2)cnc2ccc(Cl)cc12")
"Condition not met"
>>> category("CCN(CC)C(=O)CNc1c(C(=O)O)cnc2ccc(C)cc12")
"Condition met"
